Some compounds, each annotated with its measured composite z-score.
Tested on: Plasmodium falciparum Sir2 (PF13_0152, Sir2A)
Assay: Plasmodium falciparum Sir2A binding compounds – biochemical, small-molecule microarray, 635 nm fluorescence, primary screen (AID 1098);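 further: score merges spot fluorescence intensity with its signal-to-noise ratio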
Conditions: fluorescence 635 nm, higher = more signal
Response field accepts a number only; no unit should be typed.

Dear colleague, please send me the reported composite z-score for `CCOC(=O)C[C@H]1[C@H](OC(=O)c2ccccc2-c2ccccc2)[C@@H](NC(=O)c2ccc3ccccc3c2)c2cc(OCCCO)ccc2N1C(=O)c1ccccc1` when you can.
0.162

Dear colleague, please send me the reported composite z-score for COc1cc(C(O)C2C=CC3C(=O)N(C)C(=O)C3N2Nc2ccccc2)cc(OC)c1OC (stereo not drawn) when you can.
1.66

Dear colleague, please send me the reported composite z-score for `COc1ccc([Si](C)(C)[C@@H]2[C@@H](CC(=O)N3Cc4ccccc4C[C@H]3CO)O[C@]3(C(=O)N(Cc4ccc(N5C(=O)c6cccc7cccc5c67)cc4)c4ccccc43)[C@H]2C)cc1` when you can.
0.68

Dear colleague, please send me the reported composite z-score for `CO[C@H]1O[C@H](CO)[C@@H](OC(=O)Nc2ccc3c(c2)OCO3)[C@H](OC(=O)Nc2ccc3c(c2)OCO3)[C@@H]1OC(=O)Nc1ccc2c(c1)OCO2` when you can.
1.33

Dear colleague, please send me the reported composite z-score for `CC(=O)NCCCC[C@@H]1NC(=O)[C@@H]2C[C@H](C(=O)NCCCCCN)[C@H](c3cccc(OCCO)c3)N2C1=O` when you can.
1.05

Dear colleague, please send me the reported composite z-score for CN1C(=O)C2C=CC(C(O)c3cccn3C)N(Nc3ccc([N+](=O)[O-])cc3[N+](=O)[O-])C2C1=O (stereo not drawn) when you can.
0.0859

Dear colleague, please send me the reported composite z-score for `C=C[C@@H](CO)N(Cc1ccc(OC)cc1)S(=O)(=O)c1ccc(Br)cc1` when you can.
-0.36

Next:
Dear colleague, please send me the reported composite z-score for O=C(C1N=C(c2ccc(OCCCO)cc2)N(c2ccccc2)O1)N1CCCCC1 (stereo not drawn) when you can.
0.984
